# Tested On: T1, Grafted FtsH-S6 ATPase, His6x-tagged (wild-type) (Escherichia coli | , UniProt P43686 337-418)
# T1 chain: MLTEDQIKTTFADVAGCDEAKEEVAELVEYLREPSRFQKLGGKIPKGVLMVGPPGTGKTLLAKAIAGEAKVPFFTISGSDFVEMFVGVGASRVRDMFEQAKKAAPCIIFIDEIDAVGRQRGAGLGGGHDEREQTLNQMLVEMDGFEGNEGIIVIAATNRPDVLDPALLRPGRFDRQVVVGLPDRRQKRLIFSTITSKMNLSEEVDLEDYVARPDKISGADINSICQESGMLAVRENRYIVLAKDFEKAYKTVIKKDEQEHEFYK
# Assay Notes: ITC
For each of the binders below, state its dH.
Output spec: scalar in kcal/mol, unitless text.

Which value of dH has been reported for gankyrin-His6x D39A/D71A (natural protein) MEGCVSNLMVCNLAYSGKLEELKESILADKSLATRTDQASRTALHWACSAGHTEIVEFLLQLGVPVNDKDAAGWSPLHIAASAGRDEIVKALLGKGAQVNAVNQNGCTPLHYAASKNRHEIAVMLLEGGANPDAKDHYEATAMHRAAAKGNLKMIHILLYYKASTNIQDTEGNTPLHLACDEERVEEAKLLVSQGASIYIENKEEKTPLQVAKGGLGLILKR in the records? -25

Would you kindly share the measured dH for gankyrin E182A (natural protein) MEGCVSNLMVCNLAYSGKLEELKESILADKSLATRTDQDSRTALHWACSAGHTEIVEFLLQLGVPVNDKDDAGWSPLHIAASAGRDEIVKALLGKGAQVNAVNQNGCTPLHYAASKNRHEIAVMLLEGGANPDAKDHYEATAMHRAAAKGNLKMIHILLYYKASTNIQDTEGNTPLHLACDAERVEEAKLLVSQGASIYIENKEEKTPLQVAKGGLGLILKR ? -28.2

State the recorded dH for this entry: gankyrin-His6x (wild-type gankyrin) (natural protein) MEGCVSNLMVCNLAYSGKLEELKESILADKSLATRTDQDSRTALHWACSAGHTEIVEFLLQLGVPVNDKDDAGWSPLHIAASAGRDEIVKALLGKGAQVNAVNQNGCTPLHYAASKNRHEIAVMLLEGGANPDAKDHYEATAMHRAAAKGNLKMIHILLYYKASTNIQDTEGNTPLHLACDEERVEEAKLLVSQGASIYIENKEEKTPLQVAKGGLGLILKR -28.7
